Provide the reported slope of each item.
# target_under_test: Alpha-2C adrenergic receptor (Homo sapiens) (UniProt P18825)
# Sequence (P18825 whole entry, looked up): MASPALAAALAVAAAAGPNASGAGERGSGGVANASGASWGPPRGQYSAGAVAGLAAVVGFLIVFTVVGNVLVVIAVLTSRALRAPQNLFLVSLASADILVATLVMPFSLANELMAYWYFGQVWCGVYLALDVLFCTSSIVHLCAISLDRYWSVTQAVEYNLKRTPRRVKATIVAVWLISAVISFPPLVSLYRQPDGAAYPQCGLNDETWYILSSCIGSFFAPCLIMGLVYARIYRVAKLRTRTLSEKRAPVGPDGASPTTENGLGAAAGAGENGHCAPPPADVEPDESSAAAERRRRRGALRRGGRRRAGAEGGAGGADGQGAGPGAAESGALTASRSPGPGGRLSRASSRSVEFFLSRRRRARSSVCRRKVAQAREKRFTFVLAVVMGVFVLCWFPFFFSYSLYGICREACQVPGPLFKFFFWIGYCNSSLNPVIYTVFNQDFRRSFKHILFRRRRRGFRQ
# experimental_protocol: modulators of alpha2C/GIRK thallium flux, primary screen, cell-based, HEK293 alpha2C/GIRK1/2 (AID 624);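 further: slope of fluorescence ratio to pre-addition baseline per second over 15 to 24 s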
# cond: thallium flux BTC fluorescence, at 10 µM, actives lie on both sides
The answer should be a number; do not append a unit.

Data request, read-out slope, for N#Cc1nc(-c2ccccc2Cl)oc1N1CCCCC1
0.00507

Data request, read-out slope, for Cc1cccc(Nc2ncnc3ccccc23)c1
0.00506

Data request, read-out slope, for CCCN(CCC)C(=O)CC(c1ccc(F)cc1)c1ccco1 (stereo unspecified)
0.0041

Data request, read-out slope, for Cc1cccc(OCC(=O)N2CCC(N3CCCCCC3)CC2)c1
0.00464

Data request, read-out slope, for CC(=O)c1cc(CN2CCCCC2)cc(OC(C)C)c1
0.00431

Data request, read-out slope, for CC(NC(=O)NCCCC(=O)O)(C(F)(F)F)C(F)(F)F
0.00567

###

Provide the reported NADPH fluorescence slope of each item.
# target_under_test: Voltage-gated potassium channel subunit beta-2 (Rattus norvegicus) (UniProt P62483)
# Sequence (P62483 whole entry, looked up): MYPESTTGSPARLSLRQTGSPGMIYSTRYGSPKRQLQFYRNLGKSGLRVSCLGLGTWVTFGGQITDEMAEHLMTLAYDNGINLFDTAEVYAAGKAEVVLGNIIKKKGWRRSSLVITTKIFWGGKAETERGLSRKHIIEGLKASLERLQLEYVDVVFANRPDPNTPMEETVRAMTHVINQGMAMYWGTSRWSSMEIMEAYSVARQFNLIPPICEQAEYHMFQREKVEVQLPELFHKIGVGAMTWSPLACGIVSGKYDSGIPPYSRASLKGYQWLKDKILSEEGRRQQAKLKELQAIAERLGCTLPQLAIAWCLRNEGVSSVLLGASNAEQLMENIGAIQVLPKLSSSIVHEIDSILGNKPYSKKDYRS
# experimental_protocol: KvBeta positive modulators, primary screen, biochemical, NADPH fluorescence (AID 623);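 further: fluorescence intensity change per second fitted from 20 to 320 s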
# cond: Recombinant KvBeta, NADPH fluorescence decrease slope, 10 min; at 10 µM; stronger effect = lower value
Calls of active or inactive are those of the source.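 How the source made its calls: active means NADPH fluorescence slope more negative than the mean of all samples by about 3 SD, 99.7% confidence; inactive means the rest.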

Data request, read-out NADPH fluorescence slope, for COc1ccc(N/C(=N\c2nc(C)cc(C)n2)NC(=O)C(C)C)cc1OC
-3.5e-05 (inactive)

Data request, read-out NADPH fluorescence slope, for CCOc1cccc(-c2nnc3sc(COc4ccccc4)nn23)c1
-9.6e-05 (inactive)

Data request, read-out NADPH fluorescence slope, for Cc1cc(COc2ccccc2OCCN2CCN(C)CC2)no1
-6.1e-05 (inactive)

Data request, read-out NADPH fluorescence slope, for CCN(CC)CCNC(=O)c1cc(Cl)c(N)cc1OC
4.3e-05 (inactive)

Data request, read-out NADPH fluorescence slope, for CCCCCCc1cc2cc(C(=O)NC)c(=N)oc2cc1O
-6.7e-05 (inactive)

Data request, read-out NADPH fluorescence slope, for N#CCSc1nc2sc3c(c2c(=O)n1C1CCCCC1)CCCC3
-1.5e-05 (inactive)

###

Provide the reported inhibition of each item.
# experimental_protocol: inhibitors of poly I:C-induced TLR3 signaling, primary screen, cell-based, poly I:C stimulus, luciferase, 10K MLSCN set (AID 602277)
# cond: HEK293-TLR3 RL24 IRF3 luciferase reporter, at 10 µM, stronger effect = higher value
// note: answer is a bare numeric in %

Data request, read-out inhibition, for C[C@]12C=CC(=O)C=C1CC[C@@H]1[C@@H]2[C@@H](O)C[C@@]2(C)[C@H]1CC[C@]2(O)C(=O)COC(=O)CCC(=O)O
46.6

Data request, read-out inhibition, for C[C@@H]1C[C@H]2[C@@H]3CCC4=CC(=O)C=C[C@]4(C)[C@@]3(F)[C@@H](O)C[C@]2(C)[C@@]1(O)C(=O)COP(=O)(O)O
31.9

Data request, read-out inhibition, for CC(O)c1n(C)c(Cl)c[n+]1C (centres undefined)
10.8

Data request, read-out inhibition, for CC(=O)Nc1nnc(S(N)(=O)=O)s1
1.99

Data request, read-out inhibition, for Nc1ccc2[nH]ncc2c1
31.1

Data request, read-out inhibition, for Nc1ncnc2c1ncn2[C@@H]1O[C@H](CO)[C@@H](O)[C@H]1O
25.6

Data request, read-out inhibition, for N#C/C(=C\c1ccc(O)c(O)c1)C(=O)NCCCc1ccccc1
-17.2

Data request, read-out inhibition, for Cc1ccc(S(=O)(=O)NCC(=O)OCN2C(=O)c3ccccc3C2=O)cc1
-3.4

Data request, read-out inhibition, for CC1C/C=C/C=C/C=C/C=C/C(O[C@@H]2O[C@H](C)[C@@H](O)[C@H](N)[C@@H]2O)CC2OC(O)(CC(O)CC3OC3/C=C/C(=O)O1)CC(O)C2C(=O)O (some centres undefined)
28.4

###

Provide the reported z-score of each item.
# experimental_protocol: DUSP6 inhibitors restoring Erk phosphorylation by chemical complementation, primary imaging in DUSP6-transfected HeLa (AID 609)
# cond: HeLa MKP-3 transfected, phospho-Erk imaging KS statistic; measured here: nuclear c-Myc green intensity z-score; at 10 µM; cells stimulated with TPA for 15 min
The answer should be a number; do not append a unit.

Data request, read-out z-score, for CCOC(=O)c1[nH]c2cc3c(cc2c1NC(=O)CN1CCCCC1C)OCO3 (stereo not given)
-1.11

Data request, read-out z-score, for Cc1cccc(N(CC(O)CN(C)C)S(=O)(=O)c2ccccc2)c1 (stereo not given)
0.15

Data request, read-out z-score, for Cc1nn(-c2ccccc2)c2c1C(c1ccc(F)cc1F)C(C#N)=C(N)O2 (stereo not given)
-0.619

Data request, read-out z-score, for CC(=O)Nc1cccc(NC(=O)CSc2nc(C)c(C)c(C)c2C#N)c1
0.622

Data request, read-out z-score, for CC1(C)Cc2c(C#N)c(NCC3CCCO3)nc(-c3ccco3)c2CO1 (stereo not given)
1.4

###

# target_under_test: Solute carrier family 12 member 5 (Homo sapiens) (UniProt Q9H2X9)
# Sequence (Q9H2X9 whole entry, looked up): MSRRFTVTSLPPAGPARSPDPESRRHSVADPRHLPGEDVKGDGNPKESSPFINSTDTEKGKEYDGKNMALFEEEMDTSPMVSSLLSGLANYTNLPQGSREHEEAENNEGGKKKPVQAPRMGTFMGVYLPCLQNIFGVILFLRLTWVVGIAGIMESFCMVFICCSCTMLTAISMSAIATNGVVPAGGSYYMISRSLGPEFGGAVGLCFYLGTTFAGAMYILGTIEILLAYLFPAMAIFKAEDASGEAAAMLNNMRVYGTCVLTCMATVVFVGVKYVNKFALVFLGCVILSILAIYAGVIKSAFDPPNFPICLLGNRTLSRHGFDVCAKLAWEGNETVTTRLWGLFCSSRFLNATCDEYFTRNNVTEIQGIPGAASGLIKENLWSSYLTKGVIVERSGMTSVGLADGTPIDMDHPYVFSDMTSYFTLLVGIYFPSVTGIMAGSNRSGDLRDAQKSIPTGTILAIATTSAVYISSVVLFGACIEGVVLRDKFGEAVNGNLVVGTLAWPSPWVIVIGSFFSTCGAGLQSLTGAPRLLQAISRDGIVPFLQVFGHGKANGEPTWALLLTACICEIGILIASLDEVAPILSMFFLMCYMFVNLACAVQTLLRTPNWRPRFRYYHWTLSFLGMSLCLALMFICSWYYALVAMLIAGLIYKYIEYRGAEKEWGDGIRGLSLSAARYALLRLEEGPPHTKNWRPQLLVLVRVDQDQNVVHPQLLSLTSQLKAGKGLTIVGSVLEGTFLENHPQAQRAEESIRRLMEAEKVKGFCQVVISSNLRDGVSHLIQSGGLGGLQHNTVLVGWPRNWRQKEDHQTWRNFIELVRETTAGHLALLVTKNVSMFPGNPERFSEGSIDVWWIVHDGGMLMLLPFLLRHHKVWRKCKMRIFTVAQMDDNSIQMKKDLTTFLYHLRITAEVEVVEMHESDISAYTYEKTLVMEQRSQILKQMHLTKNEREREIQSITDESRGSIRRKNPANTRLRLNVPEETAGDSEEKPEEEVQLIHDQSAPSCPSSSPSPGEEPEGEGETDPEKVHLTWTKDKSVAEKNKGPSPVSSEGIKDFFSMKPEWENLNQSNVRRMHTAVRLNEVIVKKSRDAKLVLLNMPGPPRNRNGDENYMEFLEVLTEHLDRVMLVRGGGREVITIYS
# experimental_protocol: KCC2 modulators in sodium-free buffer, confirmation, cell-based, HEK293 KCC2, thallium flux, secondary assay (AID 1713)
# cond: FluoZin2 fluorescence, at 10 µM, stronger effect = higher value
The other results are listed elsewhere or left out. Records with an inconclusive call do not appear.
observed_property: normalised thallium flux (F/F0 slope)
The answer should be a number; do not append a unit.

Data request, read-out normalised thallium flux (F/F0 slope), for CCOC(=O)CSc1nnc(CNC(=O)c2cccs2)n1-c1ccccc1
0.00872

Data request, read-out normalised thallium flux (F/F0 slope), for CN(C)c1nc(=Nc2cccc(Cl)c2)ss1
0.0466

Data request, read-out normalised thallium flux (F/F0 slope), for O=C(c1cc(-c2ccc(O)cc2)on1)N1CCCc2ccccc21
0.00967

Data request, read-out normalised thallium flux (F/F0 slope), for COC(=O)c1sc(NC(=S)NC(=O)c2ccc(C)cc2)nc1C
0.0256

Data request, read-out normalised thallium flux (F/F0 slope), for CSc1sc(C(=O)NNC(=O)c2ccc(Cl)cc2)c2c1C=CCC2
0.0166

Data request, read-out normalised thallium flux (F/F0 slope), for CCOC(=O)c1c(NC(=S)NC)sc2c1CCCC2
0.0181

Data request, read-out normalised thallium flux (F/F0 slope), for COCCn1c(C)cc(C(=O)CSc2ncnc3sc4c(c23)CCC4)c1C
0.0102

Data request, read-out normalised thallium flux (F/F0 slope), for CCn1c(=S)[nH]c2sc3c(c2c1=O)CCCCC3
0.0279

Data request, read-out normalised thallium flux (F/F0 slope), for Cc1nnc(SC(C(=O)Nc2cc(Cl)cc(Cl)c2)c2ccccc2)[nH]c1=O (stereo unspecified)
0.00885

Data request, read-out normalised thallium flux (F/F0 slope), for Cc1cccc(N(CC(O)CN(C)C)S(=O)(=O)c2ccccc2)c1 (stereo unspecified)
0.00903

Data request, read-out normalised thallium flux (F/F0 slope), for CCC(C)Cn1c(O)cc2nn(-c3nc4ccccc4s3)c(=O)c-2c1C (stereo unspecified)
0.00617

Data request, read-out normalised thallium flux (F/F0 slope), for CCOC(=O)c1c(C)[nH]c(C)c1C(=O)CSc1nc(N)cc(N)n1
0.00797

Data request, read-out normalised thallium flux (F/F0 slope), for O=c1oc2ccccc2cc1-c1cn(-c2ccccc2)c(=S)[nH]1
0.00633

Data request, read-out normalised thallium flux (F/F0 slope), for O=C(CN(c1cccc(Cl)c1)S(=O)(=O)c1ccccc1)NN=C1CCCC1
0.0069

Data request, read-out normalised thallium flux (F/F0 slope), for Cc1ccc(Nc2nnc(SCC(=O)c3cc4ccccc4o3)s2)cc1C
0.00887

Data request, read-out normalised thallium flux (F/F0 slope), for Cc1ccc(C)c(NC(=S)NNC(=S)Nc2ccc(C(C)C)cc2)c1
0.0145

Data request, read-out normalised thallium flux (F/F0 slope), for CCOC(=O)c1ccccc1N1C(=O)C2Sc3[nH]c(=O)sc3C(/C=C/c3ccccc3)C2C1=O (stereo unspecified)
0.00694

Data request, read-out normalised thallium flux (F/F0 slope), for Cc1cccc(NC(=S)NC(=O)c2ccc(Br)o2)c1
0.0193

Data request, read-out normalised thallium flux (F/F0 slope), for Cc1ccccc1N/N=C/c1ccc(N2CCOCC2)cc1
0.0119

Data request, read-out normalised thallium flux (F/F0 slope), for C(=N\n1cnnc1)/c1cccnc1
0.0086

Data request, read-out normalised thallium flux (F/F0 slope), for c1cncc(-c2nnc3n2C2(CCCCC2)Cc2ccccc2-3)c1
0.0161

Data request, read-out normalised thallium flux (F/F0 slope), for O=C(CSCc1ccccc1)N1CCc2ccccc21
0.00671

Data request, read-out normalised thallium flux (F/F0 slope), for N#Cc1nc(COc2ccc(-c3ccccc3)cc2)oc1NCc1cccnc1
0.00789

Data request, read-out normalised thallium flux (F/F0 slope), for Cc1sc2ncnc(Sc3nc4ccccc4s3)c2c1C
0.0102

Data request, read-out normalised thallium flux (F/F0 slope), for O=C(CSc1ccc(-c2cccs2)nn1)Nc1ccccc1F
0.00973

Data request, read-out normalised thallium flux (F/F0 slope), for Cc1cc(C(=O)NNC(=S)Nc2ccccc2C)cs1
0.00983

Data request, read-out normalised thallium flux (F/F0 slope), for O=C(Cn1c(-c2ccc(Cl)cc2)noc1=O)N1CCN(c2ccccc2F)CC1
0.00839

Data request, read-out normalised thallium flux (F/F0 slope), for COc1ccccc1/C=C/C=N/n1c(-c2ccc(Cl)cc2Cl)n[nH]c1=S
0.0112

Data request, read-out normalised thallium flux (F/F0 slope), for O=C(Nc1nnc(C2COc3ccccc3O2)o1)c1ccc(F)cc1 (stereo unspecified)
0.0197

Data request, read-out normalised thallium flux (F/F0 slope), for O=C(CCC(=O)OCc1cccc(C(=O)Oc2ccccc2)c1)Nc1cccc2ccccc12
0.00618

Data request, read-out normalised thallium flux (F/F0 slope), for O=C(COC(=O)c1cc([N+](=O)[O-])ccc1NCc1ccccc1)NC1CCCCC1
0.00664
